Molecular target: Von Hippel-Lindau disease tumor suppressor/Elongin B/Elongin C (Homo sapiens)
Experiment: Binding affinity to VCB E3 ligase (unknown origin) assessed as binary equilibrium dissociation constant by 19F NMR assay
Parameter Kd: see the listing below.

Field: Kd (Von Hippel-Lindau disease tumor suppressor/Elongin B/Elongin C (Homo sapiens)). Entry: `Cc1ncsc1-c1ccc(CNC(=O)[C@@H]2C[C@@H](O)CN2C(=O)C(F)(F)F)cc1`
25 µM

Field: Kd (Von Hippel-Lindau disease tumor suppressor/Elongin B/Elongin C (Homo sapiens)). Entry: `Cc1ncsc1-c1ccc(CNC(=O)[C@@H]2C[C@@H](O)CN2C(=O)CC(C)(C)C)cc1C(F)(F)F`
67 µM

Consider the additional molecule presented here.
Field: Kd (Von Hippel-Lindau disease tumor suppressor/Elongin B/Elongin C (Homo sapiens)). Entry: `O=C(NCc1ccc(Br)cc1)[C@@H]1C[C@@H](O)CN1C(=O)CC(F)(F)F`
145 µM

====

Assay: Displacement of (2S,4R)-N-(4-bromobenzyl)-4-hydroxy-1-(3,3,3-trifluoropropanoyl)pyrrolidine-2-carboxamide from BRD3 bromodomain 2/VBC E3 ligase (unknown origin) ternary complex assessed as inhibition constant by 19F NMR assay
Set-up: species or system Homo sapiens
MEASURED PROPERTY: Ki

Using the record for `Cc1ncsc1-c1ccc(CNC(=O)[C@@H]2C[C@@H](O)CN2C(=O)[C@@H](NC(=O)COCCOCCOCCNC(=O)C[C@@H]2N=C(c3ccc(Cl)cc3)c3c(sc(C)c3C)-n3c(C)nnc32)C(C)(C)C)cc1` , report its Ki.
153 nM

====

Assay: Displacement of (2S,4R)-N-(4-bromobenzyl)-4-hydroxy-1-(3,3,3-trifluoropropanoyl)pyrrolidine-2-carboxamide from BRD3 bromodomain 1/VBC E3 ligase (unknown origin) ternary complex assessed as inhibition constant by 19F NMR assay
Design: species or system Homo sapiens
MEASURED PROPERTY: Ki

Using the record for `Cc1ncsc1-c1ccc(CNC(=O)[C@@H]2C[C@@H](O)CN2C(=O)[C@@H](NC(=O)COCCOCCOCCNC(=O)C[C@@H]2N=C(c3ccc(Cl)cc3)c3c(sc(C)c3C)-n3c(C)nnc32)C(C)(C)C)cc1` , report its Ki.
118 nM

====

Assay: Displacement of (2S,4R)-N-(4-bromobenzyl)-4-hydroxy-1-(3,3,3-trifluoropropanoyl)pyrrolidine-2-carboxamide from BRD3 bromodomain 2/VBC E3 ligase (unknown origin) ternary complex by 19F NMR assay
Parameters: species or system Homo sapiens
MEASURED PROPERTY: pIC50
Recall that pIC50 is obtained by taking minus log10 of the concentration measured in molar.

Using the record for `Cc1ncsc1-c1ccc(CNC(=O)[C@@H]2C[C@@H](O)CN2C(=O)[C@@H](NC(=O)COCCOCCOCCNC(=O)C[C@@H]2N=C(c3ccc(Cl)cc3)c3c(sc(C)c3C)-n3c(C)nnc32)C(C)(C)C)cc1` , report its pIC50.
6.15

====

Parameter Ki: see the listing below.
Molecular target: Von Hippel-Lindau disease tumor suppressor/Elongin B/Elongin C (Homo sapiens, UniProt P40337)
Sequence (P40337 whole entry, looked up): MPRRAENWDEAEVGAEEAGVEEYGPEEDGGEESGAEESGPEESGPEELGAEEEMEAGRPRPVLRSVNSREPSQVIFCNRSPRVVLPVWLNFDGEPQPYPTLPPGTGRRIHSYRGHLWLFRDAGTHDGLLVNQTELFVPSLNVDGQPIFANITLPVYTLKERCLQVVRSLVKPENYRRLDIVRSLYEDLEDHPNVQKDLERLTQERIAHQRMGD
Assay: Displacement of (2S,4R)-N-(4-bromobenzyl)-4-hydroxy-1-(3,3,3-trifluoropropanoyl)pyrrolidine-2-carboxamide from VBC E3 ligase (unknown origin) binary complex assessed as inhibition constant by 19F NMR assay
Type: protein-complex assay
The reply should be a number in nM, with the unit left off.

Some compounds with recorded Ki:
Using the record for `CC(=O)N1c2ccc(-c3ccc(C(=O)NCCOCCOCC(=O)N[C@H](C(=O)N4C[C@H](O)C[C@H]4C(=O)NCc4ccc(-c5scnc5C)cc4)C(C)(C)C)cc3)cc2[C@H](Nc2ccc(Cl)cc2)C[C@@H]1C` , report its Ki.
529

Using the record for `Cc1ncsc1-c1ccc(CNC(=O)[C@@H]2C[C@H](O)CN2C(=O)[C@@H](NC(=O)COCCOCCOCCOCCOCC(=O)N[C@H](C(=O)N2C[C@@H](O)C[C@H]2C(=O)NCc2ccc(-c3scnc3C)cc2)C(C)(C)C)C(C)(C)C)cc1` , report its Ki.
287

Using the record for `CC(=O)N1c2ccc(-c3ccc(C(=O)NCCOCCOCCOCCOCC(=O)N[C@H](C(=O)N4C[C@H](O)C[C@H]4C(=O)NCc4ccc(-c5scnc5C)cc4)C(C)(C)C)cc3)cc2[C@H](Nc2ccc(Cl)cc2)C[C@@H]1C` , report its Ki.
471

Consider the additional compound presented here.
Using the record for `Cc1ncsc1-c1ccc(CNC(=O)[C@@H]2[C@H](F)[C@@H](O)CN2C(=O)[C@@H](NC(=O)COCCOCCOCCNC(=O)C[C@@H]2N=C(c3ccc(Cl)cc3)c3c(sc(C)c3C)-n3c(C)nnc32)C(C)(C)C)cc1` , report its Ki.
2060
